Test system: K98450-129-R-PDC complex spheroid growth, percent test/control
Assay: Anticancer human tumor K98450-129-R-PDC patient-derived colon adenocarcinoma cell line growth inhibition [RAS]
Conditions: second compound 0.000949 µM; first compound 0.00949 µM; active compounds read low
Please go through the items and note down their viability, T/C.

So what does the record say about viability, T/C for CC1(C)CCC(Nc2ncc(C(F)(F)F)c(-c3c[nH]c4c(P(C)(C)=O)c(C#N)ccc34)n2)CN1 (centres undefined) + CCn1c(-c2cc(N3CCN(C)CC3)cnc2C(C)OC)c2c3cc(ccc31)-c1csc(n1)CC(NC(=O)C1CC1C)C(=O)N1CCCC(N1)C(=O)OCC(C)(C)C2 ? 96.2%

// same read-out, input: CCc1c2c(nc3ccc(O)cc13)-c1cc3c(c(=O)n1C2)COC(=O)[C@]3(O)CC + CCn1c(-c2cccnc2C(C)OC)c2c3cc(ccc31)N1CCOC(CC(NC(=O)C(C(C)C)N(C)C(=O)C3(F)CCN(C(=O)C#CC(C)(C)N(C)C)CC3)C(=O)N3CCCC(N3)C(=O)OCC(C)(C)C2)C1 60.9%

// same read-out, input: CCc1c2c(nc3ccc(O)cc13)-c1cc3c(c(=O)n1C2)COC(=O)[C@]3(O)CC + CCn1c(-c2cc(N3CCN(C)CC3)cnc2C(C)OC)c2c3cc(ccc31)-c1csc(n1)CC(NC(=O)C1CC1C)C(=O)N1CCCC(N1)C(=O)OCC(C)(C)C2 81.6%

// same read-out, input: CC1(C)CCC(Nc2ncc(C(F)(F)F)c(-c3c[nH]c4c(P(C)(C)=O)c(C#N)ccc34)n2)CN1 (centres undefined) + CCn1c(-c2cccnc2C(C)OC)c2c3cc(ccc31)N1CCOC(CC(NC(=O)C(C(C)C)N(C)C(=O)C3(F)CCN(C(=O)C#CC(C)(C)N(C)C)CC3)C(=O)N3CCCC(N3)C(=O)OCC(C)(C)C2)C1 83.1%

* * *

System: K98450-129-R-PDC complex spheroid growth, percent test/control
Assay: Anticancer human tumor K98450-129-R-PDC cell line growth inhibition [RAS];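 also: luminescence used as a proxy for viable cell amount; spheroids exposed to agents for seven days before the viability readout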
Conditions: second compound 1 µM; first compound 0.0316 µM; active compounds read low
Please go through the items and note down their viability, T/C.

So what does the record say about viability, T/C for CC1(O)CCCC1n1c(=O)c(C(F)F)cc2cnc(NC3CCN(S(C)(=O)=O)CC3)nc21 (stereo not given) + C=CC(=O)N1CCN(c2nc(OCC3CCCN3C)nc3c(F)c(-c4nc(N)cc(C)c4C(F)(F)F)c(Cl)cc23)C(C)C1 ? 31.7%

// same read-out, input: O=C(c1ccc(F)c(F)c1Nc1ccc(I)cc1F)N1CC(O)([C@@H]2CCCCN2)C1 + C#Cc1c(F)ccc2cc(O)cc(-c3ncc4c(N5CC6CCC(C5)N6)nc(OCC56CCCN5CC(F)C6)nc4c3F)c12 93.2%

// same read-out, input: CC(=O)OC12COC1CC(O)C1(C)C(=O)C(O)C3=C(C)C(OC(=O)C(O)C(NC(=O)OC(C)(C)C)c4ccccc4)CC(O)(C(OC(=O)c4ccccc4)C21)C3(C)C (stereo not given) + C#Cc1c(F)ccc2cc(O)cc(-c3ncc4c(N5CC6CCC(C5)N6)nc(OCC56CCCN5CC(F)C6)nc4c3F)c12 101%

// same read-out, input: CC(C)n1nc(-c2ccc3oc(N)nc3c2)c2c(N)ncnc21 + C=CC(=O)N1CCN(c2nc(OCC3CCCN3C)nc3c(F)c(-c4nc(N)cc(C)c4C(F)(F)F)c(Cl)cc23)C(C)C1 21.4%

// same read-out, input: Cc1nc(N2CCC3(CC2)COC(C)C3N)c(CO)nc1Sc1ccnc(N)c1Cl (stereo not given) + C#Cc1c(F)ccc2cc(O)cc(-c3ncc4c(N5CC6CCC(C5)N6)nc(OCC56CCCN5CC(F)C6)nc4c3F)c12 97%

// same read-out, input: Nc1ccn(C2OC(CO)C(O)C2(F)F)c(=O)n1 (stereo not given) + C#Cc1c(F)ccc2cc(O)cc(-c3ncc4c(N5CC6CCC(C5)N6)nc(OCC56CCCN5CC(F)C6)nc4c3F)c12 68.1%

// same read-out, input: C=CC(=O)Nc1cc(Nc2nccc(-c3cn(C)c4ccccc34)n2)c(OC)cc1N(C)CCN(C)C + C#Cc1c(F)ccc2cc(O)cc(-c3ncc4c(N5CC6CCC(C5)N6)nc(OCC56CCCN5CC(F)C6)nc4c3F)c12 92.6%

// same read-out, input: CC(Nc1ccc2c(c1)OCCn1cc(N3C(=O)OCC3C(F)F)nc1-2)C(N)=O (stereo not given) + C=CC(=O)N1CCN(c2nc(OCC3CCCN3C)nc3c(F)c(-c4nc(N)cc(C)c4C(F)(F)F)c(Cl)cc23)C(C)C1 28.4%

// same read-out, input: NC1c2ccccc2OC12CCN(c1cnc3c(N4CCCc5ncccc54)n[nH]c3n1)CC2 (stereo not given) + C=CC(=O)N1CCN(c2nc(OCC3CCCN3C)nc3c(F)c(-c4nc(N)cc(C)c4C(F)(F)F)c(Cl)cc23)C(C)C1 10.8%

// same read-out, input: CCC(CC)c1cc(NC2CCC(N)C2)n2nccc2n1 (stereo not given) + C#Cc1c(F)ccc2cc(O)cc(-c3ncc4c(N5CC6CCC(C5)N6)nc(OCC56CCCN5CC(F)C6)nc4c3F)c12 104%

* * *

Test system: K98450-129-R-PDC complex spheroid growth, percent test/control
Experiment: Anticancer human tumor K98450-129-R-PDC cell line growth inhibition [RAS];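 also: luminescence used as a proxy for viable cell amount; spheroids exposed to agents for seven days before the viability readout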
Details: second compound 0.316 µM; first compound 0.003 µM; active compounds read low
property_name: viability, T/C (%)
Dear colleague, please return just the value in %, with no unit written.

// fetch K98450-129-R-PDC complex spheroid growth, percent test/control viability, T/C for CC1(C)CCC(Nc2ncc(C(F)(F)F)c(-c3c[nH]c4c(P(C)(C)=O)c(C#N)ccc34)n2)CN1 (centres undefined) + C=CC(=O)N1CCN(c2nc(OCC3CCCN3C)nc3c(F)c(-c4nc(N)cc(C)c4C(F)(F)F)c(Cl)cc23)C(C)C1 41.3

// same read-out, input: CCc1c2c(nc3ccc(O)cc13)-c1cc3c(c(=O)n1C2)COC(=O)[C@]3(O)CC + C#Cc1c(F)ccc2cc(O)cc(-c3ncc4c(N5CC6CCC(C5)N6)nc(OCC56CCCN5CC(F)C6)nc4c3F)c12 101

// same read-out, input: CCc1c2c(nc3ccc(O)cc13)-c1cc3c(c(=O)n1C2)COC(=O)[C@]3(O)CC + C=CC(=O)N1CCN(c2nc(OCC3CCCN3C)nc3c(F)c(-c4nc(N)cc(C)c4C(F)(F)F)c(Cl)cc23)C(C)C1 35.4

// same read-out, input: CC1(C)CCC(Nc2ncc(C(F)(F)F)c(-c3c[nH]c4c(P(C)(C)=O)c(C#N)ccc34)n2)CN1 (centres undefined) + C#Cc1c(F)ccc2cc(O)cc(-c3ncc4c(N5CC6CCC(C5)N6)nc(OCC56CCCN5CC(F)C6)nc4c3F)c12 105

* * *

Please go through the items and note down their viability, T/C.
Test system: K98450-129-R-PDC complex spheroid growth, percent test/control
Assay: Anticancer human tumor K98450-129-R-PDC cell line growth inhibition [RAS];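 also: luminescence used as a proxy for viable cell amount; spheroids exposed to agents for seven days before the viability readout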
Conditions: second compound 0.00949 µM; first compound 0.1 µM; active compounds read low
Dear colleague, please return just the value in %, with no unit written.

So what does the record say about viability, T/C for C=CC(=O)Nc1cc(Nc2nccc(-c3cn(C)c4ccccc34)n2)c(OC)cc1N(C)CCN(C)C + CCn1c(-c2cccnc2C(C)OC)c2c3cc(ccc31)N1CCOC(CC(NC(=O)C(C(C)C)N(C)C(=O)C3(F)CCN(C(=O)C#CC(C)(C)N(C)C)CC3)C(=O)N3CCCC(N3)C(=O)OCC(C)(C)C2)C1 ? 20.9

// same read-out, input: CC(C)NCC(C(=O)N1CCN(c2ncnc3c2C(C)CC3O)CC1)c1ccc(Cl)cc1 (stereo unspecified) + CCn1c(-c2cccnc2C(C)OC)c2c3cc(ccc31)N1CCOC(CC(NC(=O)C(C(C)C)N(C)C(=O)C3(F)CCN(C(=O)C#CC(C)(C)N(C)C)CC3)C(=O)N3CCCC(N3)C(=O)OCC(C)(C)C2)C1 37.7

// same read-out, input: Nc1ccn(C2OC(CO)C(O)C2(F)F)c(=O)n1 (stereo unspecified) + CCn1c(-c2cccnc2C(C)OC)c2c3cc(ccc31)N1CCOC(CC(NC(=O)C(C(C)C)N(C)C(=O)C3(F)CCN(C(=O)C#CC(C)(C)N(C)C)CC3)C(=O)N3CCCC(N3)C(=O)OCC(C)(C)C2)C1 21.9

// same read-out, input: Nc1ccn(C2OC(CO)C(O)C2(F)F)c(=O)n1 (stereo unspecified) + CCn1c(-c2cc(N3CCN(C)CC3)cnc2C(C)OC)c2c3cc(ccc31)-c1csc(n1)CC(NC(=O)C1CC1C)C(=O)N1CCCC(N1)C(=O)OCC(C)(C)C2 33.2

// same read-out, input: O=C(c1ccc(F)c(F)c1Nc1ccc(I)cc1F)N1CC(O)([C@@H]2CCCCN2)C1 + CCn1c(-c2cc(N3CCN(C)CC3)cnc2C(C)OC)c2c3cc(ccc31)-c1csc(n1)CC(NC(=O)C1CC1C)C(=O)N1CCCC(N1)C(=O)OCC(C)(C)C2 31.1

// same read-out, input: CC(=O)OC12COC1CC(O)C1(C)C(=O)C(O)C3=C(C)C(OC(=O)C(O)C(NC(=O)OC(C)(C)C)c4ccccc4)CC(O)(C(OC(=O)c4ccccc4)C21)C3(C)C (stereo unspecified) + CCn1c(-c2cc(N3CCN(C)CC3)cnc2C(C)OC)c2c3cc(ccc31)-c1csc(n1)CC(NC(=O)C1CC1C)C(=O)N1CCCC(N1)C(=O)OCC(C)(C)C2 70.1
